# Test system: Fibrinogen (Alexa647-labelled)
# Assay details: Alexa647-fibrinogen binding to printed small molecules – biochemical, small-molecule microarray, 635/667 nm fluorescence, artefact control for SMM control-protein annotation, profiling panel (AID 1131);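 further: z-score merges 667 nm fluorescence with per-spot signal-to-noise over triplicate slides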
# Condition: fibrinogen-A647 binding fluorescence, higher = more signal
Quantity: composite z-score
In your answer, state the number alone without any accompanying words.

Completed entries (count: 4):
Chemical string	Target entity	Reading
NC(=O)[C@@H]1[C@H]2C(=O)O[C@H](c3ccccc3)[C@H](c3ccccc3)N2[C@H](c2ccccc2OCCO)[C@@]12C(=O)Nc1ccc(C#CCCO)cc12	Fibrinogen (Alexa647-labelled)	0.947
Cc1ccc(S[C@]2(C(=O)NCc3ccccc3)CC(=O)N(C3Cc4ccccc4C3)[C@@H]2c2ccc(CO)cc2I)cc1	Fibrinogen (Alexa647-labelled)	-0.151
CCCC=C(CCC)[C@@H](NS(=O)(=O)c1cccc2cccnc12)c1ccc(C(=O)OC)cc1	Fibrinogen (Alexa647-labelled)	0.395
CC(C)NC(=O)[C@@H]1c2ccccc2C(=O)N(Cc2cc(C(F)(F)F)cc(C(F)(F)F)c2)[C@H]1c1ccc(CO)cc1	Fibrinogen (Alexa647-labelled)	0.936

Q. Read off the recorded composite z-score for C[C@H]1ON(c2ccccc2)[C@@H](c2ccccc2)[C@@H]1C(=O)N1C(=O)OC[C@@H]1c1ccccc1
A. 0.894

Q. Read off the recorded composite z-score for CC(C)CN1C(=O)[C@@]2(Cc3ccccc31)c1ccccc1C(=O)N(Cc1ccccc1)[C@H]2c1ccc(CO)cc1
A. -0.492

Q. Read off the recorded composite z-score for COC(=O)[C@]1(Cc2ccccc2CN=[N+]=[N-])N=C(c2ccc(OCCCO)cc2)O[C@@H]1c1ccccc1
A. 0.0713
